Entry source: DBAASP

Hi! I'm sharing some MIC results obtained with Staphylococcus aureus ATCC 6538.
A complete answer gives the number followed by the unit.

Prompt: Reported MIC, compound CC[C@H](C)[C@H](NC(=O)[C@@H](NC(=O)[C@H](CO)NC(=O)[C@H](C)NC(=O)[C@H](CCCCN)NC(=O)[C@@H](NC(=O)[C@@H](NC(=O)[C@H](CC(=O)O)NC(=O)[C@H](Cc1ccccc1)NC(=O)[C@H](CC(C)C)NC(=O)CN)C(C)C)[C@@H](C)CC)C(C)C)C(=O)NCC(=O)NCC(=O)N[C@@H](CC(C)C)C(=O)O : ____
Completion: 737 µM

Prompt: Reported MIC, compound CC(C)C[C@H](NC(=O)[C@@H](NC(=O)[C@H](CCCCN)NC(=O)[C@H](CO)NC(=O)[C@H](C)NC(=O)[C@@H](NC(=O)[C@H](CCCCN)NC(=O)[C@H](Cc1ccccc1)NC(=O)[C@H](CC(C)C)NC(=O)[C@H](C)NC(=O)CNC(=O)[C@H](CC(C)C)NC(=O)[C@@H](N)Cc1ccccc1)C(C)C)C(C)C)C(=O)O : ____
Completion: 71.8 µM
